FYI, the data here is from PubChem BioAssay.

experiment: COS7 lysate on small-molecule microarray, probe aHis, 635 nm (AID 1123); details: COS7 cell lysate, fluorescence, higher = more signal;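 also: z-score combines 667nm fluorescence intensity with signal-to-noise per printed compound spot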
Each record here notes measured composite z-score.
Lab note: write the figure by itself, no unit.

Some compounds with recorded composite z-score:
• COCC(=C=CC[C@H](O)c1ccccc1OCCO)C[C@H](O)COCc1ccccc1 = 2.08
• COC(=O)[C@H](Cc1ccc(O)cc1)N[C@@H](/C=C/C1CC1)[C@H](O)Cc1ccccc1 = -0.635
• CC(C)C(O)C1C=CC2C(=O)NC(=O)C2N1Nc1ccccn1 (stereo not given) = 1.59
• CCOC(=O)C[C@H]1[C@H](OC(=O)Cc2ccc3c(c2)OCO3)[C@@H](NC(=O)Cc2ccc(OC)cc2)c2cc(OCCCO)ccc2N1C(=O)Cc1ccc(OC)cc1 = 0.428
• Cc1ccc(S[C@]2(C(=O)NC(C)C)CC(=O)N(C3CCCCC3)[C@@H]2c2ccc(CO)cc2I)cc1 = 2.6

[in] Please give the measured composite z-score for this compound: COc1ccc([Si](C)(C)[C@@H]2[C@@H](CC(=O)N3Cc4ccccc4C[C@H]3CO)O[C@]3(C(=O)N(Cc4ccc(N5CCOC5=O)cc4)c4ccccc43)[C@H]2C)cc1
[out] 1.12

[in] Please give the measured composite z-score for this compound: CCCN1C(=O)[C@@]2(c3ccc([N+](=O)[O-])cc3)CC(=O)N(CC34CC5CC(CC(C5)C3)C4)[C@@H]2c2ccc(CO)cc21
[out] 0.634

[in] Please give the measured composite z-score for this compound: COC(=O)[C@]1(Cc2ccccc2)N=C(c2ccc(OCCCO)cc2)O[C@@H]1c1ccccc1CN=[N+]=[N-]
[out] 1.98

[in] Please give the measured composite z-score for this compound: C=CCOC(=O)[C@@H]1[C@H]2C(=O)O[C@H](c3ccccc3)[C@H](c3ccccc3)N2[C@H](c2ccc(OCCOC(=O)[C@H]3C[C@H]4C(=O)N5CCC[C@H]5C(=O)N4[C@H]3c3cccc(OCCO)c3)cc2)[C@@]12C(=O)Nc1ccc(I)cc12
[out] 0.942

[in] Please give the measured composite z-score for this compound: N#Cc1ccc(-c2cccc(=O)o2)cc1
[out] 0.365

[in] Please give the measured composite z-score for this compound: COCCCN1C(=O)[C@@]2(c3ccc([N+](=O)[O-])cc3)CC(=O)N(CC34CC5CC(CC(C5)C3)C4)[C@@H]2c2ccc(CO)cc21
[out] 0.373

[in] Please give the measured composite z-score for this compound: COC(=O)[C@@]1(Cc2ccccc2)[C@H]2c3cc(C(=O)N(C)C)n(CCSC(=N)N)c3C[C@H]2CN1C(=O)c1ccccc1
[out] 0.778

[in] Please give the measured composite z-score for this compound: COCCCNC(=O)[C@@H]1c2ccccc2C(=O)N(Cc2ccc(OC(F)(F)F)cc2)[C@H]1c1ccc(CO)cc1
[out] 1.22
